tested on: tobacco budworm (Heliothis virescens [Fabricius]); assay: surface-treated diet test against the tobacco budworm; format: in vivo; conditions: tobacco budworm second instar larvae; surface-treated diet; 0.25 millimoles of candidate insecticide on the surface of the diet; five-day exposure; compared to total number of insects infested
Recorded Percent Mortality values for a group of molecules are listed next.
Express your answer in %, writing the number without its unit.

1) O=C(Nc1cc(F)cc(F)c1)OC(c1ccc(C(F)(F)F)cc1)C1CCN(Cc2ccc(O)cc2)CC1 (centres unmarked): 0
2) Cn1nnc(-c2ccc(CN3CCC(C(NC(=O)Oc4cccc(Cl)c4)c4ccc(OC(F)(F)F)cc4)CC3)cc2)n1 (centres unmarked): 100
3) O=C(Nc1cc(F)cc(F)c1)OC(c1ccc(C(F)(F)F)cc1)C1CCN(Cc2ccc(-c3csnn3)cc2)CC1 (centres unmarked): 33
4) Cn1nnc(-c2ccc(CN3CCC(C(NC(=O)Oc4ccc(F)cc4)c4ccc(OC(F)(F)F)cc4)CC3)cc2)n1 (centres unmarked): 17
5) CCON=Cc1ccc(CN2CCC(C(OC(=O)Nc3cccc(F)c3)c3ccc(F)cc3)CC2)cc1 (centres unmarked): 100
6) O=C(Nc1cc(F)cc(F)c1)OC(c1ccc(C(F)(F)F)cc1)C1CCN(Cc2ccc(NC3=NCCO3)cc2)CC1 (centres unmarked): 0

Field Percent Mortality (system: tobacco budworm (Heliothis virescens [Fabricius])) for entry Cn1nnc(-c2ccc(CN3CCC(C(NC(=O)Nc4ccccc4F)c4ccc(OC(F)(F)F)cc4)CC3)cc2)n1 (centres unmarked) = 100

Tested on tobacco budworm (Heliothis virescens [Fabricius]): O=C(Nc1cc(F)cc(F)c1)OC(c1ccc(C(F)(F)F)cc1)C1CCN(Cc2ccc(Oc3cccc[n+]3[O-])cc2)CC1 (centres unmarked) . Observed Percent Mortality: 100

So the reported Percent Mortality for FC(F)(F)Oc1ccc(C(Oc2ccc(C(F)(F)F)cc2)C2CCN(Cc3ccc(Oc4ncccn4)cc3)CC2)cc1 (centres unmarked) , on tobacco budworm (Heliothis virescens [Fabricius]), turned out to be 17

Summary: CC(C)OC(=O)Nc1ccc(CN2CCC(C(OC(=O)Nc3cc(F)cc(F)c3)c3cc(Cl)cc(Cl)c3)CC2)cc1 (centres unmarked) , tobacco budworm (Heliothis virescens [Fabricius]), Percent Mortality = 100

Readout Percent Mortality for O=C(Nc1ccc(F)cc1)OC(c1ccc(OC(F)(F)F)cc1)C1CCN(Cc2ccc(Cl)cc2)CC1 (centres unmarked) , test system tobacco budworm (Heliothis virescens [Fabricius]), was 0

---

system: tobacco budworm (Heliothis virescens [Fabricius]); experiment: surface-treated diet test against the tobacco budworm; type: in vivo; conditions: tobacco budworm second instar larvae; surface-treated diet; 0.25 millimoles of candidate insecticide on the surface of the diet; five-day exposure; compared to total number of insects infested
quantity: Percent Mortality (%)
Please give a number only; it is taken to be in %.

1) O=C(Nc1ccc(C(F)(F)F)nc1)OC(c1ccc(C(F)(F)F)cc1)C1CCN(Cc2ccc(Oc3ccccn3)cc2)CC1 (stereo not shown) [Compound 448]: 100
2) CCON=Cc1ccc(CN2CCC(C(OC(=O)N(C)c3ccccc3)c3ccc(C(F)(F)F)cc3)CC2)cc1 (stereo not shown) [Compound 536]: 100
3) CCn1nnc(-c2ccc(CN3CCC(C(OC(=O)Nc4ccc(C(F)(F)F)cc4)c4ccc(C)cc4)CC3)cc2)n1 (stereo not shown) [Compound 600]: 100
4) CCn1nnc(-c2ccc(CN3CCC(=C(c4ccc(F)cc4)c4ccc(Cl)cc4)CC3)cc2)n1 [Compound 79]: 83

Briefly, Percent Mortality measured for CCn1nnc(-c2ccc(CN3CCC(=C(c4ccccc4)c4ccc(C(F)(F)F)cc4)CC3)cc2)n1 [Compound 80] : 33

Measured Percent Mortality of CCON=Cc1ccc(CN2CCC(C(OC(=O)Nc3cc(Cl)c(Cl)cc3Cl)c3ccc(C(F)(F)F)cc3)CC2)cc1 (stereo not shown) [Compound 192] : 67

Record CC(C)OC(=O)Nc1ccc(CN2CCC(C(OC(=O)Nc3ccc(Cl)cc3)c3cc(Cl)cc(Cl)c3)CC2)cc1 (stereo not shown) [Compound 508] , field Percent Mortality: 100

---

# Percent Mortality annotations
test system: tobacco budworm (Heliothis virescens [Fabricius]); experiment: surface-treated diet test against the tobacco budworm; type: in vivo; conditions: tobacco budworm second instar larvae; surface-treated diet; 0.25 millimoles of candidate insecticide on the surface of the diet; five-day exposure; compared to total number of insects infested
Please reply with the bare figure in % and do not write the unit itself.

Some solved entries appear below for comparison.
1) CCn1nnc(-c2ccc(CN3CCC(C(OC(=O)Nc4ccc(C(F)(F)F)cc4)c4ccc(OC(F)(F)F)cc4)CC3)cc2)n1 (stereo not drawn): 100
2) O=C(Nc1ccc(Cl)c(C(F)(F)F)c1)OC(c1ccc(C(F)(F)F)cc1)C1CCN(Cc2ccc(Oc3ccccn3)cc2)CC1 (stereo not drawn): 100
3) Fc1cc(F)cc(NC(=S)OC(c2ccc(C(F)(F)F)cc2)C2CCN(Cc3ccc(Oc4ccccn4)cc3)CC2)c1 (stereo not drawn): 100
4) N#Cc1ccc(Oc2ccc(C[N+]3([O-])CCC(=C(c4ccc(C(F)(F)F)cc4)c4ccc(C(F)(F)F)cc4)CC3)cc2)nc1 (stereo not drawn): 100
5) CCn1nnc(-c2ccc(CN3CCC(C(OC(=O)Nc4ccc(F)c(F)c4)c4ccc(Cl)c(Cl)c4)CC3)cc2)n1 (stereo not drawn): 100

Please fill in: Percent Mortality reported for CCNC(=S)Nc1ccc(CN2CCC(C(OC(=O)Nc3cc(F)cc(F)c3)c3ccc(C(F)(F)F)cc3)CC2)cc1 (stereo not drawn) = 17

---

system: tobacco budworm (Heliothis virescens [Fabricius]); test: surface-treated diet test against the tobacco budworm; format: in vivo; conditions: tobacco budworm second instar larvae; surface-treated diet; 0.25 millimoles of candidate insecticide on the surface of the diet; five-day exposure; compared to total number of insects infested
Consider the cut-off 80%. If the recorded Percent Mortality is strictly smaller, the label is fulfilled; if not, the label is not fulfilled.

1. Cn1nnc(-c2ccc(CN3CCC(C(NC(=O)Nc4ccc(F)cc4)c4ccc(OC(F)(F)F)cc4)CC3)cc2)n1 (centres unmarked): not fulfilled
2. O=C(Nc1ccc(Cl)cc1)OC(c1ccc(C(F)(F)F)cc1)C1CCN(Cc2ccc(Oc3ccccn3)cc2)CC1 (centres unmarked) [Compound 227]: not fulfilled
3. CC(C)OC(=O)c1ccc(CN2CCC(=C(c3ccc(C(F)(F)F)cc3)c3ccc(C(F)(F)F)cc3)CC2)cc1: fulfilled
4. Cn1nnc(-c2ccc(CN3CCC(C(NC(=O)Oc4ccccc4F)c4ccc(OC(F)(F)F)cc4)CC3)cc2)n1 (centres unmarked): fulfilled
5. CCCOc1ccc(CN2CCC(=C(c3cccc(OC(F)(F)F)c3)c3cccc(OC(F)(F)F)c3)CC2)cc1: fulfilled

Task: Could you please tell me whether Percent Mortality recorded for Cn1nnc(-c2ccc(CN3CCC(C(NC(=O)Oc4ccc(Br)cc4)c4ccc(OC(F)(F)F)cc4)CC3)cc2)n1 (centres unmarked) is less than 80%?
Output: not fulfilled

Task: Could you please tell me whether Percent Mortality recorded for O=C(Nc1c(Cl)cccc1Cl)OC(c1ccc(C(F)(F)F)cc1)C1CCN(Cc2ccc(Oc3ccccn3)cc2)CC1 (centres unmarked) is less than 80%?
Output: fulfilled

Task: Please determine if O=C(Nc1cc(F)cc(F)c1)OC(c1ccc(C(F)(F)F)cc1)C1CCN(Cc2ccc(Oc3ccccc3F)cc2)CC1 (centres unmarked) is below 80% in terms of Percent Mortality.
Output: not fulfilled

Task: Criterion: Percent Mortality strictly below 80%. Is it met by N#Cc1cccnc1Oc1ccc(CN2CCC(C(OC(=O)Nc3cc(F)cc(F)c3)c3ccc(C(F)(F)F)cc3)CC2)cc1 (centres unmarked) ?
Output: not fulfilled

Task: # strict comparison: is reported Percent Mortality < 80%? input = O=C(Nc1cc(F)cc(F)c1)OC(c1ccc(C(F)(F)F)cc1)C1CCN(Cc2ccc(NC(=O)c3ccccc3Cl)cc2)CC1 (centres unmarked)
Output: not fulfilled

Task: A record lists CCn1nnc(-c2ccc(CN3CCC(=C(c4ccc(F)cc4)c4ccc(F)cc4)CC3)cc2)n1 . Is its Percent Mortality below 80%?
Output: fulfilled

Task: Hello, I'm reviewing records and need to know if Percent Mortality of CCn1nnc(-c2ccc(CN3CCC(C(OC(=O)Nc4ccc(C(C)C)cc4)c4ccc(OC(F)(F)F)cc4)CC3)cc2)n1 (centres unmarked) is below 80%. Could you check?
Output: fulfilled

Task: Does O=C(Nc1ccc(I)cc1)OC(c1ccc(C(F)(F)F)cc1)C1CCN(Cc2ccc(Oc3ccccn3)cc2)CC1 (centres unmarked) have Percent Mortality strictly under 80%?
Output: not fulfilled

Task: Does Cn1nnc(-c2ccc(CN3CCC(C(NC(=O)Oc4cccc(F)c4)c4ccc(OC(F)(F)F)cc4)CC3)cc2)n1 (centres unmarked) have Percent Mortality strictly under 80%?
Output: not fulfilled

---

Percent Mortality by entry:
system: tobacco budworm (Heliothis virescens [Fabricius]); test: surface-treated diet test against the tobacco budworm; type: in vivo; details: tobacco budworm second instar larvae; surface-treated diet; 0.25 millimoles of candidate insecticide on the surface of the diet; five-day exposure; compared to total number of insects infested
Dear colleague, please return just the value in %, with no unit written.

1) CCn1nnc(-c2ccc(CN3CCC(C(OC(=O)Nc4ccc(F)c(F)c4)c4cccc(F)c4)CC3)cc2)n1 (centres unmarked) [Compound 584]: 100
2) Cn1nnc(-c2ccc(CN3CCC(C(NC(=O)Oc4ccc(OC(F)(F)F)cc4)c4ccc(OC(F)(F)F)cc4)CC3)cc2)n1 (centres unmarked) [Compound 357]: 100
3) O=C(Nc1cccc(Cl)c1Cl)OC(c1ccc(C(F)(F)F)cc1)C1CCN(Cc2ccc(Oc3ccccn3)cc2)CC1 (centres unmarked) [Compound 228]: 100

For reference, reported Percent Mortality for CCn1nnc(-c2ccc(CN3CCC(C(OC(=O)Nc4ccc(F)c(F)c4)c4ccccc4Cl)CC3)cc2)n1 (centres unmarked) [Compound 569] stands at 100

The measured Percent Mortality associated with COc1ccc(CN2CCC(C(OC(=O)Nc3ccc(F)cc3)c3ccc(OC(F)(F)F)cc3)CC2)cc1 (centres unmarked) [Compound 468] reads 33

The compound identified as CCn1nnc(-c2ccc(CN3CCC(C(OC(=O)Nc4ccc(-c5ccccc5)cc4)c4ccc(Oc5ccccc5)cc4)CC3)cc2)n1 (centres unmarked) [Compound 621] registered its Percent Mortality at 0

Record O=C(Nc1ccc(F)cc1)OC(c1ccc(F)cc1)C1CCN(Cc2ccc(Oc3ccccn3)cc2)CC1 (centres unmarked) [Compound 640] . Reported Percent Mortality: 100

Form: compound = CCn1nnc(-c2ccc(CN3CCC(C(OC(=O)Nc4ccc(C(F)(F)F)cc4)c4ccc(-c5ccccc5)cc4)CC3)cc2)n1 (centres unmarked) [Compound 615] ; Percent Mortality = 17

Note to self: Percent Mortality recorded for O=C(Nc1ccc(Cl)cc1)OC(c1ccc(C(F)(F)F)cc1)C1CCN(Cc2ccc(Oc3nsnc3Cl)cc2)CC1 (centres unmarked) [Compound 561] was 50

Form: compound = O=C(Nc1cc(F)cc(F)c1)OC(c1ccc(C(F)(F)F)cc1)C1CCN(Cc2ccc(OCc3ccccc3)cc2)CC1 (centres unmarked) [Compound 549] ; Percent Mortality = 0
